assay: Plasma protein binding, rapid equilibrium dialysis, mouse; type: in vitro ADME; conditions: pH 7.4, mice, 6 h dialysis
measured-endpoint: fraction unbound at 6 h, 10 μM
Answer using only a numeral; do not append any unit.

Input line: What value of measured fraction unbound at 6 h, 10 μM is listed for N#Cc1ccc(/C=C/c2nc3ccccc3c(=O)n2-c2cccc(C(=O)O)c2)cc1.[Na] ?
Output line: 0.02

---

molecular target: PBP1 (Staphylococcus aureus, UniProt Q53725); construct: Fluorescence labeling of S. aureus membrane preparation (150 μg) by Bocillin FL (30 μM); endogenous in cells; assay: Bocillin FL competition assay, S. aureus membrane preparation
Sequence (Q53725 1-744): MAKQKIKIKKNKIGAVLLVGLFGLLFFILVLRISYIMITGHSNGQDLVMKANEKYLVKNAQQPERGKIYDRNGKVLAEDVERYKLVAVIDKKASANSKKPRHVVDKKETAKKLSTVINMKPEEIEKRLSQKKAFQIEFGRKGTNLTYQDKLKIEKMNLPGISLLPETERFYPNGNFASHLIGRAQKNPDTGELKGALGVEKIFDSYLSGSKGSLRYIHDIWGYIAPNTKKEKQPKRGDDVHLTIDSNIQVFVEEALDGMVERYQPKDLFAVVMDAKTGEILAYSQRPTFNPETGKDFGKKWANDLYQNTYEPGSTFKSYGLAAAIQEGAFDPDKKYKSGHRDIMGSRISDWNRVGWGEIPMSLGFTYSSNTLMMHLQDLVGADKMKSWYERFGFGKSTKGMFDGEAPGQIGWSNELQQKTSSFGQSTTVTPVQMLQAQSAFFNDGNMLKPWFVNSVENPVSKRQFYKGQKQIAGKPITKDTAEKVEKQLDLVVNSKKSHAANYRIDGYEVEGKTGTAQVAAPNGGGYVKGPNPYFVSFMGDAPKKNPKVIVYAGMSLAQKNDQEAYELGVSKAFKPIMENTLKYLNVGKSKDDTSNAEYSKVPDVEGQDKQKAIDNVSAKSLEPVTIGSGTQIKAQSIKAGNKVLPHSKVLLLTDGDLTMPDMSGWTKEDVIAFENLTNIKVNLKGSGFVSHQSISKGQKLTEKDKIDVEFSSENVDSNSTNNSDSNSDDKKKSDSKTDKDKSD
measured-endpoint: IC50 (µM)
Value expressed in µM; do not type the unit.

Input line: I would be grateful if you could share the reported IC50 for N#Cc1ccc(/C=C/c2nc3ccccc3c(=O)n2-c2cccc(C(=O)O)c2)cc1.[Na] [Compound 2] .
Output line: 187

---

tested on: S. aureus VRS2; experiment: MIC, CLSI broth microdilution, S. aureus VRS2; format: cell-based, Staphylococcus aureus; settings: Table 2.1, S. aureus VRS2
measured-endpoint: In vitro AB activity (MIC) (µg/mL)
The figure you give is taken to be in µg/mL; do not add the unit.

Input line: May I ask what In vitro AB activity (MIC) has been recorded for Cc1onc(-c2ccccc2)c1C(=O)N[C@@H]1C(=O)N2[C@@H]1SC(C)(C)[C@@H]2C(=O)O ?
Output line: 256

Input line: And then CN[C@H](CC(C)C)C(=O)N[C@H]1C(=O)N[C@@H](CC(N)=O)C(=O)N[C@H]2C(=O)N[C@H]3C(=O)N[C@H](C(=O)N[C@H](C(=O)O)c4cc(O)cc(O)c4-c4cc3ccc4O)[C@H](O)c3ccc(c(Cl)c3)Oc3cc2cc(c3O[C@@H]2O[C@H](CO)[C@@H](O)[C@H](O)[C@H]2O[C@H]2C[C@](C)(N)[C@H](O)[C@H](C)O2)Oc2ccc(cc2Cl)[C@H]1O , what is it?
Output line: 64

Input line: And the next one, N#Cc1ccc(/C=C/c2nc3ccccc3c(=O)n2-c2cccc(C(=O)O)c2)cc1.[Na] ?
Output line: 2

Input line: And CC(=O)NC[C@H]1CN(c2ccc(N3CCOCC3)c(F)c2)C(=O)O1 ?
Output line: 2

---

experiment: in vivo; conditions: female, ICR, mouse, in vivo, iv
measured-endpoint: AUC (ng·h/mL)
Report only the number, with the unit ng·h/mL understood.

Input line: Requested read-out: AUC. Entry: N#Cc1ccc(/C=C/c2nc3ccccc3c(=O)n2-c2cccc(C(=O)O)c2)cc1.[Na]
Output line: 23500

---

Experiment: in vivo
Conditions: mouse, in vivo, iv, 10 mg/kg
Description: We conducted first fast PK studies (n=2 mice per time point, 5 time points) dosing the compounds iv, followed by full PK studies for selected compounds (n=3 mice per time point, 10-12 time points per route of administration, iv and po). A single dose of compound 2 was administered to mice (n=3 per time point) by tail vein injection or by oral gavage at 10 mg/kg. […] The supernatant was analyzed by reverse-phase UPLC. […]
measured-endpoint: concentration at 24 h (ng/mL)
Numbers only here, please. The scale is ng/mL.

Input line: // query concentration at 24 h value for entry N#Cc1ccc(/C=C/c2nc3ccccc3c(=O)n2-c2cccc(C(=O)O)c2)cc1.[Na]
Output line: 142
